Molecular target: T1, OsCS aa 316-583 (Oryza sativa, UniProt A2Y0X2 316-583)
T1 construct: bait, Gal4 DBD fusion; also called PN19707
T1 sequence: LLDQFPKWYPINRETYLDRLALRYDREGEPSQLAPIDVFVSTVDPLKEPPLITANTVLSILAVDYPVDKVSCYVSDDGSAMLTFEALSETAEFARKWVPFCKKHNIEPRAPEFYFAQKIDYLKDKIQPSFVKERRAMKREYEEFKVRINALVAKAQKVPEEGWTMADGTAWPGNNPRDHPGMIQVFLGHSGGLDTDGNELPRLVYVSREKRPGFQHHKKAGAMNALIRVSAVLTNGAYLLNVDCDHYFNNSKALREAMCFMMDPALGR
Assay: Y2H; output trait library
value.kind: binding result

1) OsPN29077 aa 1-242 (other, prey, AD fusion; also called Novel Protein PN29077, Fragment, Similar to A. thaliana DNA-Damage Inducible Protein DDI1-Like) VEAQKKIEAAIRQKGIDENWEAALEHNPEAFARVVMLYVDMEVNGVPLKAFVDSGAQSTIISKSCAERCGLLRLLDQRYRGVAIGVGQSEILGRIHVAPIKIGHVFYPCSFTVLDAPNMEFLFGLDMLRKHQCIIDLKDNVLRVGGGEVSVPFLQEKDIPSHIRDEEKLSKLASLSQGAAGESSTAREKTPDAPPRAPTTGAPAVNPPQPQGGGDFEAKVTKLVELGFDRASVIQALKLFNG ... binds
